Origin of values: patent US20230265187A1

subject-of-test: T1, His-tagged cynomolgus monkey TIGIT (Acro Biosystems #TIT-05223) (cynomolgus monkey, UniProt A0A7N9I9V4 89-209)
T1 construct: Bought protein; also called cyno TIGIT; cynomolgus TIGIT; not shown: His tag
assay-notes: SPR (Carterra LSA), scFv-Fc captured, His-TIGIT analyte
Entries and their measured pKd follow.
Please treat pKd as minus the base-10 logarithm of the molar concentration.

Sample answers from the record:
{"binder": "43586p2.F11 (scFv, V domains shown) VH: EVQLLELGGSLVQPGGSLRLSCAASGFTFDDYVMSWVRQAPGKGLEWVSLINWNGDKTYYADSVKGRFTISRDNSKNTLYLQMNSLRAEDTAVYYCARHWIVFQYGLDVWGQGTTVTVSS VL: QSVLTQPLSASGTPGQKVTISCSGVSSNIEIKYVSWYQQLPGTAPKLLIYNSHQRPSGVPDRFSGSKSGTSASLAISGLQSEDEADYYCTSWDDRLKSWVFGGGTKLTVL", "reported-measurement": 8.68}
{"binder": "43586p2.D01 (scFv, V domains shown) VH: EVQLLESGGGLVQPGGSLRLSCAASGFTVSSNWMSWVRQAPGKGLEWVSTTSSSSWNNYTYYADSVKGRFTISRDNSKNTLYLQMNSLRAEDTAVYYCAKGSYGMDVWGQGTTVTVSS VL: QSVLTQPPSASGTPGQRVTISCSGSNSNIGAKYLYWYQQLPGTAPKLLIYLNDQRPSGVPDRFSGSKSGTSASLAISGLQSEDEADYYCAFWDDHLKGWVFGGGTKLTVL", "reported-measurement": 7.54}

Read the next record carefully.
Q: # get_value(readout='pKd', item= 43586p1.2.E4 (scFv, V domains shown) VH: EVQLLESGGGLVQPGGSLRLSCAASGFTFSDYLMTWVRQAPGKGLEWVSTITWDGDRTYYADSVKGRFTISRDNSKNTLYLQMNSLRAEDTAVYYCAKHWTVFQYGMDVWGQGTTVTVSS VL: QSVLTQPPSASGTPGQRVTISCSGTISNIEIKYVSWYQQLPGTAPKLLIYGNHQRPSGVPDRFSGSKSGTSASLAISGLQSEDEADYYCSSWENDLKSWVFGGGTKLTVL )
Result: 7.60
